Tested on: TGFBR1
test-settings: concentration: 1 μM, replicates: in singlicate; n = 1;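 note: KINOMEscan kinase panel screen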
Record form. Attribute: %Inh. Fill in for each entry.
Enter your answer as a number in %; do not include the unit.

Entry Cc1nnc(-c2ccc(C)c(-c3ccc(C(=O)O)cc3)c2)o1 [GW608005] needs its %Inh filled in; supply it. 0

Entry O=C(Nc1n[nH]c2nc(-c3ccccc3)c(Br)cc12)C1CC1 [SB-708998] needs its %Inh filled in; supply it. 0

Entry Cc1nnc(-c2ccc3ncn(-c4ccc(S(C)=O)cc4)c3c2)o1 (stereo not drawn) needs its %Inh filled in; supply it. 0

Entry COc1cc(Nc2nccc(N3CCC(NC(=O)C(C)c4ccc(Cl)cc4)C3)n2)cc(OC)c1OC (stereo not drawn) [GSK1379757] needs its %Inh filled in; supply it. 0

Entry CCc1nc(-c2cccc(C)c2)c(-c2ccncc2)s1 needs its %Inh filled in; supply it. 0

Entry Cc1c(Cn2c(C)nn3c(=O)cc(N4CCO[C@H](C)C4)nc23)cccc1C(F)(F)F [GSK2373690] needs its %Inh filled in; supply it. 0

Entry Cc1nn2c(=O)cc(N3CCOCC3)nc2n1Cc1cccc(Cl)c1Cl [GSK2342769] needs its %Inh filled in; supply it. 0

Entry COc1cccc(-n2cnc3c(N)ncnc32)c1 [SKF-97416] needs its %Inh filled in; supply it. 24

Entry Cl.c1ccc(Cn2cnc3cc(Nc4ncnc5ccccc45)ccc32)cc1 [GW272142] needs its %Inh filled in; supply it. 6

Entry O=C(NCCNc1ccnc(Nc2ccc(F)cc2)n1)Nc1ccc2c(c1)OCO2 [GSK1379882] needs its %Inh filled in; supply it. 0

Entry OCCCNc1nccc(-c2c(-c3cccc(C(F)(F)F)c3)nn3cc(C(F)(F)F)ccc23)n1 [GW630813] needs its %Inh filled in; supply it. 0

Entry Fc1cccc(CSc2nnc(-c3ccc4c(c3)CCO4)o2)c1 needs its %Inh filled in; supply it. 11

Entry O=C(Nc1ccc2c(c1)OCO2)NC1CCN(c2ccnc(NCc3ccc(F)cc3)n2)CC1 [GSK1379859] needs its %Inh filled in; supply it. 0

Entry CCn1c(-c2ccoc2)nc2cnccc21 [SB-733887] needs its %Inh filled in; supply it. 0

Entry O=C(Nc1n[nH]c2cc(-c3ccccc3F)ccc12)C1CC1 [SB-733371] needs its %Inh filled in; supply it. 0

----------
Tested on: HIPK2
test-settings: concentration: 1 μM, replicates: in singlicate; n = 1
assay-readout: %Inh

Entry Cc1ccc(Oc2ccc(Nc3ncnc4cc[nH]c34)cc2C)cn1 needs its %Inh filled in; supply it. 11%

Entry Cc1nnc(-c2ccc3ncn(-c4ccc(S(C)=O)cc4)c3c2)o1 (stereo not shown) needs its %Inh filled in; supply it. 10%

Entry COc1cccc(C2=C(Nc3cccc(C(=O)O)c3)C(=O)NC2=O)c1 needs its %Inh filled in; supply it. 0%

Entry Cc1cccc(-c2cc(-c3c[nH]nc3-c3ccccn3)ccn2)c1 needs its %Inh filled in; supply it. 0%

Entry Cc1ccc(-c2ccc3c(ccc4sc5c(c43)NC[C@@H](C)N=C5N(C)C)n2)cn1 needs its %Inh filled in; supply it. 0%

Entry Cn1c(=O)c(F)c(Nc2ccc(I)cc2F)c2c(=O)n(OC[C@H](O)CO)cnc21 needs its %Inh filled in; supply it. 0%

Entry Cc1cccc(-c2nc(Nc3ccc4c(cnn4C)c3)c3ccccc3n2)n1 needs its %Inh filled in; supply it. 14%

Entry CCc1ccc(-c2ccc3c(c2)-c2nn(C)cc2S(=O)(=O)N3C)cc1 needs its %Inh filled in; supply it. 0%

Entry COc1ccc(Nc2nccc(N3CCC(NS(=O)(=O)c4ccc(NC(C)=O)cc4)C3)n2)cc1 (stereo not shown) needs its %Inh filled in; supply it. 20%

Entry CN(C)c1cc(-c2ccc3c(N)n[nH]c3c2)nc(N)n1 needs its %Inh filled in; supply it. 0%

Entry COc1cc(Nc2nccc(N3CCC(NC(=O)C(C)c4ccc(Cl)cc4)C3)n2)cc(OC)c1OC (stereo not shown) needs its %Inh filled in; supply it. 0%

Entry Nc1n[nH]c2nnc(-c3ccccc3)c(-c3ccccc3)c12 needs its %Inh filled in; supply it. 86%

Entry CCc1nc(-c2cccc(C)c2)c(-c2ccncc2)s1 needs its %Inh filled in; supply it. 0%

Entry COC(=O)c1c(-c2ccccc2)c2cc(Br)ccc2c(=O)n1Cc1ccc(S(C)(=O)=O)cc1 needs its %Inh filled in; supply it. 18%

Entry Cc1c(Cn2c(C)nn3c(=O)cc(N4CCO[C@H](C)C4)nc23)cccc1C(F)(F)F needs its %Inh filled in; supply it. 0%

Entry COc1cc(OC)cc(-c2cc3cnc(N)nc3nc2NC(=O)NC(C)(C)C)c1 needs its %Inh filled in; supply it. 0%

Entry O=c1cc(N2CCOCC2)nc2n(Cc3ccc(F)c(Cl)c3)ccn12 needs its %Inh filled in; supply it. 0%

Entry Nc1ncnc2c1ncn2-c1ccc(Cl)cc1 needs its %Inh filled in; supply it. 0%

Entry O=C(NCCNc1ccnc(Nc2ccc(F)cc2)n1)Nc1ccc2c(c1)OCO2 needs its %Inh filled in; supply it. 0%

Entry Cc1cc(Nc2nc(-c3cccc(C)n3)nc3ccccc23)ccn1 needs its %Inh filled in; supply it. 0%

Entry COC(=O)c1c(-c2ccccc2)c2cc(Br)ccc2c(=O)n1Cc1ccc(NC(=O)CCC(=O)O)cc1 needs its %Inh filled in; supply it. 28%

Entry Nc1ncnc2c1ncn2-c1cccc(F)c1 needs its %Inh filled in; supply it. 16%

Entry Nc1nccc2scc(-c3ccc4c(c3)CCN4C(=O)Cc3ccccc3)c12 needs its %Inh filled in; supply it. 0%

Entry COc1cc2ncn(-c3cc(OCc4ccncc4)c(C(N)=O)s3)c2cc1OC needs its %Inh filled in; supply it. 0%

Entry Cl.c1ccc(Cn2cnc3cc(Nc4ncnc5ccccc45)ccc32)cc1 needs its %Inh filled in; supply it. 0%

Entry CCC(=O)c1c(-c2ccccc2)c2cc(Cl)ccc2c(=O)n1Cc1cc(S(C)(=O)=O)n(CC(N)=O)n1 needs its %Inh filled in; supply it. 0%

Entry Cl.NS(=O)(=O)c1cccc(Nc2cc(-c3ccc(F)cc3)n[nH]2)c1 needs its %Inh filled in; supply it. 10%

Entry COc1ccc(-c2cc3c(C)nc(N)nc3n([C@H]3CC[C@H](O)CC3)c2=O)cn1 needs its %Inh filled in; supply it. 0%

Entry COc1cc(Nc2ccnc3ccc(C(F)(F)F)cc23)cc(OC)c1OC needs its %Inh filled in; supply it. 0%

Entry COc1cc2ncn(-c3cc(OCCCc4ccccc4)c(C(N)=O)s3)c2cc1OC needs its %Inh filled in; supply it. 0%

Entry CC(C)(C)c1ccc(C(=O)Nc2cn3cc(-c4ccccc4)ccc3n2)cc1 needs its %Inh filled in; supply it. 52%

Entry CCC(=O)c1c(-c2ccccc2)c2cc(Cl)ccc2c(=O)n1Cc1ccc(C(=O)O)cc1 needs its %Inh filled in; supply it. 0%

Entry COc1cc2nccc(Nc3ccc(OCc4ccc(NC(C)=O)cc4)cc3)c2cc1OC.Cl needs its %Inh filled in; supply it. 0%

Entry CN1C(=O)C(Nc2ccccc2)=C(c2ccccc2)C1=O needs its %Inh filled in; supply it. 9%

Entry CCn1c(-c2nonc2N)nc2ccccc21 needs its %Inh filled in; supply it. 45%

Entry Nc1ncnc2c1ncn2-c1cccc2ccccc12 needs its %Inh filled in; supply it. 0%

Entry O=C(Nc1n[nH]c2nc(-c3ccccc3)c(Br)cc12)C1CC1 needs its %Inh filled in; supply it. 0%

Entry source: paper PMC5540273
